# Assay system: HIV-1 Env of pseudovirus isolate MGRM-G-011 (subtype G) (HIV-1)
# Assay explanation: cell-based or functional assay
Measure: IC50

## Input Quote IC50 reported for PGT-125 (antibody, V domains shown) VH: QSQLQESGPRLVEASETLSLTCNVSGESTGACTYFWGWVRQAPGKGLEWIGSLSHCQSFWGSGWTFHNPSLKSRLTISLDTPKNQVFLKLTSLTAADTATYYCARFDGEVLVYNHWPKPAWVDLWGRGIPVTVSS VL: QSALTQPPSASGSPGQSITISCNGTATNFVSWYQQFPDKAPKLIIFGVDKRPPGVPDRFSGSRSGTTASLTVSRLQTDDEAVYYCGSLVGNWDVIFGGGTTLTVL please.
## Output > 50 mg/L

## Input Quote IC50 reported for PGT-135 (antibody, V domains shown) VH: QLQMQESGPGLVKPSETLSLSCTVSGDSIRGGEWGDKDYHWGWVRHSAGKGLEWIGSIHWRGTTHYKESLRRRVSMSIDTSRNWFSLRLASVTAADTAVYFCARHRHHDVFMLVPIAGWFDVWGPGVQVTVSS VL: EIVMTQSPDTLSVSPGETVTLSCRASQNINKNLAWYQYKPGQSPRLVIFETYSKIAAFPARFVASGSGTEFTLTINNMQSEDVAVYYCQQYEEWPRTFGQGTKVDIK please.
## Output > 50 mg/L

## Input Quote IC50 reported for PGT-123 (antibody, V domains shown) VH: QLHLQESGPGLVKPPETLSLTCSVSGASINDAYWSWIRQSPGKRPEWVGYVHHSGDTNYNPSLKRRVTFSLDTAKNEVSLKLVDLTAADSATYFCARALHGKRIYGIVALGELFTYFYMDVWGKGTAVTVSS VL: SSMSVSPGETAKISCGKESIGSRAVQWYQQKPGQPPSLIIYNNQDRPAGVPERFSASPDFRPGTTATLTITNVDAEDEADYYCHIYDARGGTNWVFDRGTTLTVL please.
## Output 14.9 mg/L

## Input Quote IC50 reported for PGT-130 (antibody, V domains shown) VH: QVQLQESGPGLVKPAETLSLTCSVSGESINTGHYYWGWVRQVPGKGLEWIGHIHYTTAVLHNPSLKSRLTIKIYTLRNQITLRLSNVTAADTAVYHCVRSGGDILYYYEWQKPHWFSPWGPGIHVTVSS VL: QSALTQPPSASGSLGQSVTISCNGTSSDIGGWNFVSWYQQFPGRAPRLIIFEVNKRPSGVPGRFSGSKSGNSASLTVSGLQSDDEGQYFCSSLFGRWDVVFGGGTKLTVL please.
## Output > 50 mg/L

Origin of values: patent US20160264649A1
